Reference source: paper PMC7023064

tested on: MCF-7 and MDA-MB-231 cell lines; assay: MTT assay, summary over tested tumor cells; assay type: cell-based, human; details: Homo sapiens; MCF-7 and MDA-MB-231; read-out: IC50, anti-proliferative activity against tested tumor cells
Outcome Measure: IC50

**Query** Entry COc1cc2c(cc1OCCCCCCn1cc(C)c(=O)n(CCCCCCOc3cc4c(cc3OC)[C@H]3CC[C@]5(C)[C@@H](O)CC[C@H]5[C@@H]3CC4)c1=O)CC[C@@H]1[C@@H]2CC[C@]2(C)[C@@H](O)CC[C@@H]12 [Compound 21b] has what IC50?
**Result** ~25 µM

**Query** Same again, this time with COc1cc2c(cc1OCCCCCCn1c(=O)ccn([C@@H]3O[C@H](CO)[C@@H](O)[C@H]3O)c1=O)CC[C@@H]1[C@@H]2CC[C@]2(C)[C@@H](O)CC[C@@H]12
**Result** 3.89 to 16.7 µM

**Query** Same again, this time with COc1cc2c(cc1O)CC[C@@H]1[C@@H]2CC[C@]2(C)[C@@H](OCCCCCCn3c(=O)ccn([C@@H]4O[C@H](CO)[C@@H](O)[C@H]4O)c3=O)CC[C@@H]12
**Result** 3.89 to 16.7 µM

**Query** Same again, this time with COc1cc2c(cc1OCCCCCCCCn1c(=O)ccn([C@@H]3O[C@H](CO)[C@@H](O)[C@H]3O)c1=O)CC[C@@H]1[C@@H]2CC[C@]2(C)[C@@H](O)CC[C@@H]12
**Result** 3.89 to 16.7 µM

**Query** Same again, this time with COc1cc2c(cc1O)CC[C@@H]1[C@@H]2CC[C@]2(C)[C@@H](OCCCCCCCCn3c(=O)ccn([C@@H]4O[C@H](CO)[C@@H](O)[C@H]4O)c3=O)CC[C@@H]12
**Result** 3.89 to 16.7 µM
